Entry source: patent US20030068675

Target: T1, ZFP SBS#581 (synthetic)
T1 chain: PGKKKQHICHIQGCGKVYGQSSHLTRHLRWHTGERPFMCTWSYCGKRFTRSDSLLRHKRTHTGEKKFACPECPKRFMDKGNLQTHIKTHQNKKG
Test: EMSA
Details: tags: MBP fusion
pKd: −log10 of the molar value.
readout_label: pKd

[
  {
    "binder": "TACGTGGGTT (dsDNA) DNA 1: TACGTGGGTT DNA 2: AACCCACGTA",
    "readout_label": "pKd",
    "readout_number": 6.42
  }
]
